# credit: paper PMC10746525

B1: MBP-TRAK1_(342-431) [human] / MIRO1_(177-591) [human] (parent)
chain 1: EEKEMKPACIKALTRIFKISDQDNDGTLNDAELNFFQRICFNTPLAPQALEDVKNVVRKHISDGVADSGLTLKGFLFLHTLFIQRGRHETTWTVLRRFGYDDDLDLTPEYLFPLLKIPPDCTTELNHHAYLFLQSTFDKHDLDRDCALSPDELKDLFKVFPYIPWGPDVNNTVCTNERGWITYQGFLSQWTLTTYLDVQRCLEYLGYLGYSILTEQESQASAVTVTRDKKIDLQKKQTQRNVFRCNVIGVKNCGKSGVLQALLGRNLMRQKKIREDHKSYYAINTVYVYGQEKYLLLHDISESEFLTEAEIICDVVCLVYDVSNPKSFEYCARIFKQHFMDSRIPCLIVAAKSDLHEVKQEYSISPTDFCRKHKMPPPQAFTCNTADAPSKDIFVKLTTMAMYPHVTQADLKSST
chain 2: EAQEELKNLRNKTMPNTTSRRYHSLGLFPMDSLAAEIEGTMRKELQLEEAESPDITHQKRVFETVRNINQVVKQRSLTPSPMNIPGSNQS

variants of: B1; assay: ITC; conditions: with MIRO1_(177-591) [human]; 370 µM MIRO1(177-591) in syringe, 35 µM MBP-TRAK1(342-431) 400KR401 to AA in cell; ITC buffer with 5 mM EGTA
pKd: −log10 of the molar value.

{"sequence change": "chain 2 K59A R60A", "pKd": 5.12}
